Reference source for all entries: patent US20240247252A1

molecular target: sortase A (SrtA) (Staphylococcus aureus)
Sequence (Q2FV99 whole entry): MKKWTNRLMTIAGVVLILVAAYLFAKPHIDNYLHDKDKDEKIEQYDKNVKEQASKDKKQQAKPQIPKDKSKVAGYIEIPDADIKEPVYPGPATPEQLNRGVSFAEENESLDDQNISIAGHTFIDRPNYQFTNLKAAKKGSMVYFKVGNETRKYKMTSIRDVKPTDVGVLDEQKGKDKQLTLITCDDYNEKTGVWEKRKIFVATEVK
Positions of bridges follow the written chain, without caps; N, C: chain ends. Non-standard residues stand in square brackets, D forms with d. Residues, ends and D or L forms follow the SMILES beside them. *: point of attachment. X1 = O=Cc1ccccc1NCc1cc(C(=O)*)ccc1B(O)O; X2 = CC(=O)c1ccc(OCC(=O)*)cc1B(O)O; Dap = NC[C@H](N)C(=O)O
The following compounds are shown together with reported pIC50 values.
// pIC50 is dimensionless: -log10 of concentration (M)

In the examples that follow, each entry is paired with its recorded pIC50.
[[record]]
compound = "CC[C@H](C)[C@@H]1NC(=O)[C@H](CC(C)C)NC(=O)[C@@H](NC(=O)[C@H](C)N)CSSC[C@@H](C(=O)NCC(=O)NCC(=O)NCC(=O)N[C@@H](CNC(=O)COc2ccc(C(C)=O)c(B(O)O)c2)C(N)=O)NC(=O)CNC(=O)CNC(=O)[C@H](Cc2c[nH]c3ccccc23)NC(=O)[C@H]([C@@H](C)O)NC(=O)[C@@H]2CCCN2C1=O [Compound P3] (H-ACLIPTWGGCGGG[Dap](X2)-NH2; disulfide 2-10)"
property_measured = "pIC50"
measured_number = 5.34

[[record]]
compound = "CC[C@H](C)[C@@H]1NC(=O)[C@H](CC(C)C)NC(=O)[C@@H](NC(=O)[C@H](C)NC(=O)CNC(=O)CNC(=O)CNC(=O)COc2ccc(C(C)=O)c(B(O)O)c2)CSSC[C@@H](C(N)=O)NC(=O)CNC(=O)CNC(=O)[C@H](Cc2c[nH]c3ccccc23)NC(=O)[C@H]([C@@H](C)O)NC(=O)[C@@H]2CCCN2C1=O [Compound P7] (X2-GGGACLIPTWGGC-NH2; disulfide 5-13)"
property_measured = "pIC50"
measured_number = 5.35

[[record]]
compound = "CC[C@H](C)[C@@H]1NC(=O)[C@H](CC(C)C)NC(=O)[C@@H](NC(=O)[C@H](C)NC(C)=O)CSSC[C@@H](C(=O)NCC(=O)NCC(=O)NCC(=O)N[C@@H](CNC(=O)c2ccc(B(O)O)c(CNc3ccccc3C=O)c2)C(N)=O)NC(=O)CNC(=O)CNC(=O)[C@H](Cc2c[nH]c3ccccc23)NC(=O)[C@H]([C@@H](C)O)NC(=O)[C@@H]2CCCN2C1=O [Compound P5] (Ac-ACLIPTWGGCGGG[Dap](X1)-NH2; disulfide 2-10)"
property_measured = "pIC50"
measured_number = 5.89


Continue with the next compound.
### Prompt Give pIC50 (sortase A (SrtA) (Staphylococcus aureus)) of the following compound: CC[C@H](C)[C@@H]1NC(=O)[C@H](CC(C)C)NC(=O)[C@@H](NC(=O)[C@H](C)NC(=O)CNC(=O)CNC(=O)CNC(=O)c2ccc(B(O)O)c(CNc3ccccc3C=O)c2)CSSC[C@@H](C(N)=O)NC(=O)CNC(=O)CNC(=O)[C@H](Cc2c[nH]c3ccccc23)NC(=O)[C@H]([C@@H](C)O)NC(=O)[C@@H]2CCCN2C1=O [Compound P8] (X1-GGGACLIPTWGGC-NH2; disulfide 5-13)
### Response 5.42

----------
target: UniProt Q2FV99
Positions of bridges follow the written chain, without caps; N, C: chain ends. Residues, ends and D or L forms follow the SMILES beside them.
property_measured: pIC50
Please express pIC50 as -log10 of the molar concentration.

### Prompt Find pIC50 (UniProt Q2FV99) for the entry CC[C@H](C)[C@@H]1NC(=O)[C@H](CC(C)C)NC(=O)[C@@H](NC(=O)[C@H](C)N)CSSC[C@@H](C(N)=O)NC(=O)CNC(=O)CNC(=O)[C@H](Cc2c[nH]c3ccccc23)NC(=O)[C@H]([C@@H](C)O)NC(=O)[C@@H]2CCCN2C1=O [Compound W7] (H-ACLIPTWGGC-NH2; disulfide 2-10)
### Response 4.77
